Molecular target: PARP1 L713F-nLuc biosensor (HCT116) (UniProt P09874)
Sequence (P09874 whole entry L713F, looked up): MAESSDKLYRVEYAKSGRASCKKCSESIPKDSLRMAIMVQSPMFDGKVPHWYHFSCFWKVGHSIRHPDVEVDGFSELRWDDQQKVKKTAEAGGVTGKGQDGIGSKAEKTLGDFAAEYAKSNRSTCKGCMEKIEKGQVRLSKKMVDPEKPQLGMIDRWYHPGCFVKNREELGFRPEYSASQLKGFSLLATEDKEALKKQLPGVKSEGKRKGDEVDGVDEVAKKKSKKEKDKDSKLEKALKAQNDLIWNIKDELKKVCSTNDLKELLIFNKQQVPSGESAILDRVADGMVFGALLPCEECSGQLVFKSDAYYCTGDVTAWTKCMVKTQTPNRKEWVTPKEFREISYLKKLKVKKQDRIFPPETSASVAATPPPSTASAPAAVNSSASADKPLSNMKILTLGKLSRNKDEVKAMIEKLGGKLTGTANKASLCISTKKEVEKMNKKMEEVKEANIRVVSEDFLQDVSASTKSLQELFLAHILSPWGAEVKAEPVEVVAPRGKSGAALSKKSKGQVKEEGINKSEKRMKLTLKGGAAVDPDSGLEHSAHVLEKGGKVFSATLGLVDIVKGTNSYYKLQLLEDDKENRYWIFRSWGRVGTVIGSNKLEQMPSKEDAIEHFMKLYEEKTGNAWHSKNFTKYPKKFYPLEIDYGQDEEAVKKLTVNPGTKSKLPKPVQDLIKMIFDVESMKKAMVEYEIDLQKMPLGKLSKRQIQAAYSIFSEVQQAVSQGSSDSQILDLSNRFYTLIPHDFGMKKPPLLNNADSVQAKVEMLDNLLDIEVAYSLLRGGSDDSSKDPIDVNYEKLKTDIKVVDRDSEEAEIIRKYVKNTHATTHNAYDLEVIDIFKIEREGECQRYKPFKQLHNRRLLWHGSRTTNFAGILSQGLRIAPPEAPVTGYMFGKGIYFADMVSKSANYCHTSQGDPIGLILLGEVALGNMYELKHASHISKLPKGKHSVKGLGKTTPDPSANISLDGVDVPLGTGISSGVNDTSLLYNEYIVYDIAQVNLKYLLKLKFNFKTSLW
Test: PARP1 L713F-nLuc/akaLuc ratio relative to DMSO control (biosensor stabilization) (fold change); higher = more PARP1 biosensor stabilization (target engagement / stabilizer), active = hit call of the paper;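 active = log2 fold change beyond 2 SD from the library mean after excluding viability outliers; inactive = within 2 SD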
Conditions: stock concentration (mM; final µM = stock mM x 1): 10; 24 h
Classes used: active, inactive

                                   compound  discrete_label
0  O=C(O)c1ccc2c(c1)nc(Nc1cccc(Cl)c1)c1ccncc12        inactive
1  Cc1ccc2[nH]c3c(c2c1)CCCC3C(N)=O (centres undefined)        inactive
2        Nc1cccc(Nc2ncc(-c3ccc(Cl)cc3)o2)c1        inactive
3  C=CC(=O)N1C[C@@H](Nc2ncnc3[nH]ccc23)CC[C@H]1C        inactive
4  CS(=O)(=O)c1ccc(Oc2cc(F)cc(C#N)c2)c2c1C(O)C(F)C2 (centres undefined)        inactive
5  CC(C)(O)c1ccc(-c2nc3c(F)cc(F)cc3c(=O)[nH]2)cc1          active
6  CS(=O)(=O)c1ccc(-c2nnc(/C=C/c3nnc(-c4ccc(C#N)cc4)o3)n2-c2ccccc2Cl)nc1        inactive
7  C[C@@H](Oc1cc(-n2cnc3ccc(CN4CCN(C)CC4)cc32)sc1C(N)=O)c1ccccc1C(F)(F)F        inactive
8  CN(c1ccccc1)c1ccc2c(c1)CCC[C@H]2CNc1cnccc1C(=O)O        inactive
